Data provenance is patent US20180104312A1.

// EC50, intracellular cAMP (HTRF) lookup, one value per entry
- Test System: T1, human glucose-dependent insulinotropic polypeptide receptor (human, UniProt P48546 22-466)
- T1 sequence (looked up): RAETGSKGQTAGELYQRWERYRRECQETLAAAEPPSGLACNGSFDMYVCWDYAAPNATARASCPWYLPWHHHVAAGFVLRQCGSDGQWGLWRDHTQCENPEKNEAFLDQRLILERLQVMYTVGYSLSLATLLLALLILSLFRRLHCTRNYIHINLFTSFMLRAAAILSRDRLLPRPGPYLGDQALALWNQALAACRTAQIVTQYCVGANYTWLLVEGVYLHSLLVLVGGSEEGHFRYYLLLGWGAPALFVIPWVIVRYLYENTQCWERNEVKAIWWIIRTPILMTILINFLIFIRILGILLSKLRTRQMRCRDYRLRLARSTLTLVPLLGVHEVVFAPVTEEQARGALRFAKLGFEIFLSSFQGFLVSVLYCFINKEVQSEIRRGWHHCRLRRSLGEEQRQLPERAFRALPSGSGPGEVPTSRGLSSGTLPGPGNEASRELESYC
- Assay Protocol: cell-based or functional assay
Measurement Label: EC50, intracellular cAMP (HTRF)

binder="YXQGTFTSDYSKYLDXKKAXEFVAWLLEE (Aib at positions 2 and 16; K20 epsilon-amino group conjugated with ([2-(2-Amino-ethoxy)-ethoxy]-acetyl)2-(γGlu)1-CO-(CH2)18-CO2H; C-terminal acid) [Example 7]" experimental_value="> 500 nM"
binder="YXQGTFTSDYSKYLDXKKAXEFVEWLLETGPSSGAPPPS (Aib at positions 2 and 16; K20 epsilon-amino group conjugated with ([2-(2-Amino-ethoxy)-ethoxy]-acetyl)2-(γGlu)2-CO-(CH2)18-CO2H; C-terminal primary amide) [Example 2]" experimental_value="> 500 nM"
binder="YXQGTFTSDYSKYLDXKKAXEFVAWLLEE (Aib at positions 2 and 16; K20 epsilon-amino group conjugated with ([2-(2-Amino-ethoxy)-ethoxy]-acetyl)2-(γGlu)1-CO-(CH2)16-CO2H; C-terminal acid) [Example 6]" experimental_value="> 500 nM"
binder="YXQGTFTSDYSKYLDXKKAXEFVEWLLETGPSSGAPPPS (Aib at positions 2 and 16; K20 epsilon-amino group conjugated with ([2-(2-Amino-ethoxy)-ethoxy]-acetyl)2-(γGlu)2-CO-(CH2)16-CO2H; C-terminal primary amide) [Example 1]" experimental_value="> 500 nM"
binder="YXQGTFLSDYSKYLDXKKAXEFVEWLLETGPSSGAPPPS (Aib at positions 2 and 16; K20 epsilon-amino group conjugated with ([2-(2-Amino-ethoxy)-ethoxy]-acetyl)2-(γGlu)2-CO-(CH2)16-CO2H; C-terminal primary amide) [Example 3]" experimental_value="> 500 nM"
